Data origin, for the record: paper PMC6696198

- TESTED ON: thyroid peroxidase (TPO) (Sus scrofa, UniProt P09933)
- Construct: The frozen thyroid gland was cut into slices and homogenized in a buffer containing 0.25 M sucrose; from tissue; host or cells: porcine thyroid gland (homogenate, centrifuged, salted-out to 60%)
- Sequence (P09933 15-926): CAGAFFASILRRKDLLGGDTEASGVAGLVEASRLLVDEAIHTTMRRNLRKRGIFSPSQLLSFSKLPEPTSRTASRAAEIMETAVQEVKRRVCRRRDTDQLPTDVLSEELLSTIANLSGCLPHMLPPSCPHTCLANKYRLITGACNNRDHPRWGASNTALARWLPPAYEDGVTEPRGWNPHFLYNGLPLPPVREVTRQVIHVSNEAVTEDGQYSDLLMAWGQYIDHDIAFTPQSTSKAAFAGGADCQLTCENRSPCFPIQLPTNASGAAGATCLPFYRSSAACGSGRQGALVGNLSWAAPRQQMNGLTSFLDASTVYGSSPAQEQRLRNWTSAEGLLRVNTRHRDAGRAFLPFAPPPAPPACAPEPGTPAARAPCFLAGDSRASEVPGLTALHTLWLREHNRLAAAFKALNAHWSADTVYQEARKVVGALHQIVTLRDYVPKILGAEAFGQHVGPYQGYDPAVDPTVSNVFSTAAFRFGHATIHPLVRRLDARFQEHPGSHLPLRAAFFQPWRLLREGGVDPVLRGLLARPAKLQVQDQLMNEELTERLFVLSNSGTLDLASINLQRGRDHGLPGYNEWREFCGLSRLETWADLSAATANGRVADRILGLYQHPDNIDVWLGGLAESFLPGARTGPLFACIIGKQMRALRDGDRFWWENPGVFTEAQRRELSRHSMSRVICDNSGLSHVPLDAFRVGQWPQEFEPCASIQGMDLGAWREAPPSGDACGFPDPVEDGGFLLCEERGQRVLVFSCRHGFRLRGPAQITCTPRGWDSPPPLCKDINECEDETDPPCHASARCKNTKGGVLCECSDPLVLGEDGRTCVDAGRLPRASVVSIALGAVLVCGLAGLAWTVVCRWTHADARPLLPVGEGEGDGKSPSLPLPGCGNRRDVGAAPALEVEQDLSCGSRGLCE
- TEST DETAILS: TPO inhibitory assay (guaiacol oxidation)
- Assay type: biochemical, porcine
- MEASUREMENT CONDITIONS: Lineweaver-Burk plot, with respect to guaiacol

COMPOUND	Mode of Inhibition
C[C@@H]1O[C@@H](OC[C@H]2O[C@@H](Oc3c(-c4ccc(O)c(O)c4)oc4cc(O)cc(O)c4c3=O)[C@H](O)[C@@H](O)[C@@H]2O)[C@H](O)[C@H](O)[C@H]1O [rutin]	competitive
O=C(/C=C/c1ccc(O)c(O)c1)O[C@H](Cc1ccc(O)c(O)c1)C(=O)O [rosmarinic acid]	competitive
